Would you kindly list POST Application ALOMY herbicidal damage (five point scale) for each of these compounds?
# System: Alopecurus myosuroides (ALOMY)
# Method Notes: Post-emergence herbicidal glasshouse test on Alopecurus myosuroides
# Assay type: in vivo
# Test Conditions: post-emergence; 1000 g/h; evaluated after 13 days

Count: 3. Required value per item: POST Application ALOMY herbicidal damage (five point scale).
1. Cn1ncc(-c2ccc(F)cc2C(F)(F)F)c(O)c1=O
2. CCOc1cccc(-c2c(C(F)(F)F)ccn(-c3cnn(C)c(=O)c3O)c2=O)c1
3. CCn1ncc(-c2cc3cccnc3nc2C(F)(F)F)c(O)c1=O

Response line:
1 (1=0-19% damage)
2 (2=20-39% damage)
5 (5=80-100% damage)

Count: 3. Required value per item: POST Application ALOMY herbicidal damage (five point scale).
1. Cn1ncc(-c2ccc(C#N)cc2C(F)(F)F)c(O)c1=O
2. COCn1ncc(-c2ccc(Cl)cc2S(C)(=O)=O)c(O)c1=O
3. Cn1ncc(-c2ccc(S(C)(=O)=O)c(O)c2Cl)c(O)c1=O

Response line:
["3 (3=40-59% damage)", "5 (5=80-100% damage)", "1 (1=0-19% damage)"]

###

# Test system: Setaria faberi (SETFA)
# Method Notes: Post-emergence herbicidal glasshouse test on Setaria faberi
# Assay type: in vivo
# Test Conditions: post-emergence; 1000 g/h; evaluated after 13 days
Recorded Endpoint: POST Application SETFA herbicidal damage (five point scale)

# example entries with known answers
>  <Compound>
C=Cn1ncc(-c2ccccc2S(C)(=O)=O)c(O)c1=O

>  <Result>
5 (5=80-100% damage)

$$$$
>  <Compound>
Cn1ncc(-c2cccn(-c3cccc(F)c3)c2=O)c(O)c1=O

>  <Result>
4 (4=60-79% damage)

$$$$
>  <Compound>
Cn1ncc(-c2ccc(F)cc2C(F)(F)F)c(O)c1=O

>  <Result>
1 (1=0-19% damage)

$$$$
>  <Compound>
COc1ccc(-n2cccc(-c3cnn(C)c(=O)c3O)c2=O)cc1

>  <Result>
3 (3=40-59% damage)

$$$$
>  <Compound>
CC(C)[S+]([O-])c1ccccc1-c1cnn(C)c(=O)c1O (centres unmarked)

>  <Result>
4 (4=60-79% damage)

$$$$

Count: 6. Required value per item: POST Application SETFA herbicidal damage (five point scale).
1. Cn1ncc(-c2ccc(C(F)(F)F)nc2OCc2cccc(Cl)c2)c(O)c1=O
2. Cn1ncc(-n2ccc(C(F)(F)F)c(-c3cc(Cl)cc(Cl)c3)c2=O)c(O)c1=O
3. Cn1ncc(-c2ccc(S(C)(=O)=O)c(OCC(F)(F)F)c2Cl)c(O)c1=O
4. Cc1ccc(F)cc1-c1c(C(F)(F)F)ccn(-c2cnn(C)c(=O)c2O)c1=O
5. CCCn1ncc(-c2c(Cl)cccc2Cl)c(O)c1=O
6. CCOc1cccc(-c2c(C(F)(F)F)ccn(-c3cnn(C)c(=O)c3O)c2=O)c1

Response line:
["1 (1=0-19% damage)", "5 (5=80-100% damage)", "5 (5=80-100% damage)", "5 (5=80-100% damage)", "2 (2=20-39% damage)", "2 (2=20-39% damage)"]

###

# Tested on: Amaranthus retoflexus (AMARE)
# Method Notes: Pre-emergence herbicidal glasshouse test on Amaranthus retoflexus
# Format: in vivo
# Test Conditions: pre-emergence; 1000 g/h; evaluated after 13 days
Recorded Endpoint: PRE Application AMARE herbicidal damage (five point scale)

# example entries with known answers
>  <Molecule>
Cc1ccc(-n2cccc(-c3cnn(C)c(=O)c3O)c2=O)cc1 [Compound 9.017]

>  <Result>
1 (1=0-19% damage)

$$$$
>  <Molecule>
Cc1c(-c2cnn(C(F)F)c(=O)c2O)ccc(S(C)(=O)=O)c1C1=NOCC1 [Compound 1.005]

>  <Result>
5 (5=80-100% damage)

$$$$
>  <Molecule>
Cn1cccc(-c2cnn(C)c(=O)c2O)c1=O [Compound 9.003]

>  <Result>
2 (2=20-39% damage)

$$$$
>  <Molecule>
CC(C)n1ncc(-c2ccc(S(C)(=O)=O)c(C3=NOCC3)c2Cl)c(O)c1=O [Compound 1.014]

>  <Result>
5 (5=80-100% damage)

$$$$
>  <Molecule>
Cc1cc(Cl)ccc1-c1c(C(F)(F)F)ccn(-c2cnn(C)c(=O)c2O)c1=O [Compound 7.038]

>  <Result>
5 (5=80-100% damage)

$$$$

Count: 3. Required value per item: PRE Application AMARE herbicidal damage (five point scale).
1. Cn1ncc(-c2ccc(Cl)cc2[N+](=O)[O-])c(O)c1=O [Compound 1.109]
2. COc1ccc(-c2cnn(C)c(=O)c2O)c(Cl)c1 [Compound 1.103]
3. CC(C)N(C)S(=O)(=O)c1ccc(-c2cnn(C)c(=O)c2O)c(S(C)(=O)=O)c1 [Compound 2.038]

Response line:
5 (5=80-100% damage)
1 (1=0-19% damage)
5 (5=80-100% damage)

Prompt line: // fetch PRE Application AMARE herbicidal damage (five point scale) for Cn1ncc(-c2ccc(F)cc2[S+](C)[O-])c(O)c1=O (stereo not drawn) [Compound 1.057] ; system: Amaranthus retoflexus (AMARE)
Response line: 5 (5=80-100% damage)
